- Tested on: M4Beu, a human melanoma cell line
- protocol.text: In vitro cytotoxicity assay (resazurin reduction test)
- Format: cell-based
- condition: 48-h continuous drug exposure

- compound: "CC(=O)OC[C@H]1O[C@@H](NC(=O)CNC(=O)CCCc2ccc(N(CCCl)CCCl)cc2)[C@H](F)[C@@H](OC(C)=O)[C@@H]1OC(C)=O [Compound 21a]"
  unit.info: "µM"
  value.prefix: "="
  IC50: 6.8
- compound: "CC(=O)OC[C@H]1O[C@@H](Oc2ccc(NC(=O)CNC(=O)CCCc3ccc(N(CCCl)CCCl)cc3)cc2)[C@H](F)[C@@H](OC(C)=O)[C@@H]1OC(C)=O [Compound 40a]"
  unit.info: "µM"
  value.prefix: "="
  IC50: 15
- compound: "CC(=O)OC[C@H]1O[C@@H](Oc2ccc(NC(=O)CCCc3ccc(N(CCCl)CCCl)cc3)cc2)[C@H](F)[C@@H](OC(C)=O)[C@@H]1OC(C)=O [Compound 37a]"
  unit.info: "µM"
  value.prefix: ">"
  IC50: 50
- compound: "CC(=O)OC[C@H]1O[C@@H](NC(=O)NCCCc2ccc(N(CCCl)CCCl)cc2)[C@H](F)[C@@H](OC(C)=O)[C@@H]1OC(C)=O [Compound 17a]"
  unit.info: "µM"
  value.prefix: "="
  IC50: 27
- compound: "CC(=O)OC[C@H]1O[C@@H](NC(=O)CCCNC(=O)CCCc2ccc(N(CCCl)CCCl)cc2)[C@H](F)[C@@H](OC(C)=O)[C@@H]1OC(C)=O [Compound 22a]"
  unit.info: "µM"
  value.prefix: "="
  IC50: 9
- compound: "CC(=O)OC[C@H]1O[C@@H](NC(=O)c2ccc(NC(=O)CCCc3ccc(N(CCCl)CCCl)cc3)cc2)[C@H](F)[C@@H](OC(C)=O)[C@@H]1OC(C)=O [Compound 20a]"
  unit.info: "µM"
  value.prefix: "="
  IC50: 7
- compound: "O=C(O)CCCc1ccc(N(CCCl)CCCl)cc1 [chlorambucil, reference compound]"
  unit.info: "µM"
  value.prefix: ">"
  IC50: 100
- compound: "CC(=O)OC[C@H]1O[C@@H](NC(=O)CCNC(=O)CCCc2ccc(N(CCCl)CCCl)cc2)[C@H](F)[C@@H](OC(C)=O)[C@@H]1OC(C)=O [Compound 31a]"
  unit.info: "µM"
  value.prefix: "="
  IC50: 15

###

- System: ovary adenocarcinoma PA1
- protocol.text: In vitro cytotoxicity assay (resazurin reduction test)
- Type: cell-based
- condition: Homo sapiens, 48-h continuous drug exposure
pIC50: −log10 of the molar value.
The reader will find reported pIC50 values listed item by item below.

- compound: "CC(=O)OC[C@H]1O[C@@H](NC(=O)NCCCc2ccc(N(CCCl)CCCl)cc2)[C@H](F)[C@@H](OC(C)=O)[C@@H]1OC(C)=O [Compound 17a]"
  pIC50: 6.22
- compound: "CC(=O)OC[C@H]1O[C@@H](NC(=O)CCNC(=O)CCCc2ccc(N(CCCl)CCCl)cc2)[C@H](F)[C@@H](OC(C)=O)[C@@H]1OC(C)=O [Compound 31a]"
  pIC50: 6.62
- compound: "CC(=O)OC[C@H]1O[C@@H](Oc2ccc(NC(=O)CNC(=O)CCCc3ccc(N(CCCl)CCCl)cc3)cc2)[C@H](F)[C@@H](OC(C)=O)[C@@H]1OC(C)=O [Compound 40a]"
  pIC50: 5.82
- compound: "CC(=O)OC[C@H]1O[C@@H](Oc2ccc(NC(=O)CCCc3ccc(N(CCCl)CCCl)cc3)cc2)[C@H](F)[C@@H](OC(C)=O)[C@@H]1OC(C)=O [Compound 37a]"
  pIC50: 6.12
- compound: "O=C(O)CCCc1ccc(N(CCCl)CCCl)cc1 [chlorambucil, reference compound]"
  pIC50: 5.55
- compound: "CC(=O)OC[C@H]1O[C@@H](NC(=O)CNC(=O)CCCc2ccc(N(CCCl)CCCl)cc2)[C@H](F)[C@@H](OC(C)=O)[C@@H]1OC(C)=O [Compound 21a]"
  pIC50: 6.00
- compound: "CC(=O)OC[C@H]1O[C@@H](NC(=O)CCCNC(=O)CCCc2ccc(N(CCCl)CCCl)cc2)[C@H](F)[C@@H](OC(C)=O)[C@@H]1OC(C)=O [Compound 22a]"
  pIC50: 6.57
- compound: "CC(=O)OC[C@H]1O[C@@H](NC(=O)c2ccc(NC(=O)CCCc3ccc(N(CCCl)CCCl)cc3)cc2)[C@H](F)[C@@H](OC(C)=O)[C@@H]1OC(C)=O [Compound 20a]"
  pIC50: 6.52

Hey, just so you know, these numbers are from patent EP1881000A1.
